- SYSTEM: hCMV UL128 + UL130 + UL131A (co-expressed in HEK293T cells) (human cytomegalovirus, UniProt P16837 28-171; P16772 1-214; F5HET4 19-129)
- Sequence (P16837 28-171 limits assumed, one chain of several): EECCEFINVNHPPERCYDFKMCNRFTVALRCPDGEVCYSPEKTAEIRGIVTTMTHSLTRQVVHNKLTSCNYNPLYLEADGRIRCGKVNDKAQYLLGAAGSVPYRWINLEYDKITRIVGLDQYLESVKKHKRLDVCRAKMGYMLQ
- TEST_DESCRIPTION: cell-based or functional assay
OBSERVED_PROPERTY: 90% Neutralization ARPE

BINDER	OBSERVED_PROPERTY	VALUE_MEASURED
9I6 (antibody, V domains shown) VH: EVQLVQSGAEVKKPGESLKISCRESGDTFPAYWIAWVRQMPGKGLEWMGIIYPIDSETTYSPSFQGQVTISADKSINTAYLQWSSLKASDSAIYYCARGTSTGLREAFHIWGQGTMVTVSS VL: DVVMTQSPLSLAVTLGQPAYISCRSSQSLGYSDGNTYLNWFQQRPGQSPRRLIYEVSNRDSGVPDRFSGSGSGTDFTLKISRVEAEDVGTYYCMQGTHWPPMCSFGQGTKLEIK	90% Neutralization ARPE	0.0007 µg/mL

Moving on to the next binder.
GET /value?item= 7B13 (antibody, V domains shown) VH: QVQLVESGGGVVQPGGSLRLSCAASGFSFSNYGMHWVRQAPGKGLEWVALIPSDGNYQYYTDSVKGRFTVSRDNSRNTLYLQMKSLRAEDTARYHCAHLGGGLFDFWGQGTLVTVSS VL: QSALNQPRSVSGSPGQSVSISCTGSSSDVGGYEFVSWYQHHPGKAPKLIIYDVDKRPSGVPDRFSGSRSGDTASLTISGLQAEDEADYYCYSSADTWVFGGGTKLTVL &field=90% Neutralization ARPE returns 0.003 µg/mL
